These data points were gathered from ChEMBL document CHEMBL1143635.

SYSTEM_NAME: Excitatory amino acid transporter 2 (Homo sapiens, UniProt P43004)
EXPERIMENTAL_PROTOCOL: Inhibitory concentration against glutamate uptake in HEK cells expressing human Excitatory amino acid transporter 2
Type: cell-based, HEK293
PROPERTY_NAME: IC50 (nM)
Lab book: enter the figure in nM, no units written.

Look over these answered cases.
1. Cc1cc(-c2cccc(C(F)(F)F)c2)ccc1NC(=O)C[C@H](N)C(=O)O :: 400
2. N[C@@H](CC(=O)Nc1ccc2c(c1)Cc1cc(C(F)(F)F)ccc1-2)C(=O)O :: 100
3. N[C@@H](CC(=O)Nc1c(F)c(F)c(-c2cccc(C(F)(F)F)c2)c(F)c1F)C(=O)O :: 1000

Entry "N[C@@H](CC(=O)Nc1ccc2c(c1)Cc1ccccc1-2)C(=O)O" has what IC50?
700

Reported IC50 for "N[C@@H](CC(=O)Nc1ccc2oc3cc(F)c(F)cc3c2c1)C(=O)O" : what is it?
500

---

SYSTEM_NAME: Excitatory amino acid transporter 1 (Homo sapiens)
Sequence (P43003 whole entry): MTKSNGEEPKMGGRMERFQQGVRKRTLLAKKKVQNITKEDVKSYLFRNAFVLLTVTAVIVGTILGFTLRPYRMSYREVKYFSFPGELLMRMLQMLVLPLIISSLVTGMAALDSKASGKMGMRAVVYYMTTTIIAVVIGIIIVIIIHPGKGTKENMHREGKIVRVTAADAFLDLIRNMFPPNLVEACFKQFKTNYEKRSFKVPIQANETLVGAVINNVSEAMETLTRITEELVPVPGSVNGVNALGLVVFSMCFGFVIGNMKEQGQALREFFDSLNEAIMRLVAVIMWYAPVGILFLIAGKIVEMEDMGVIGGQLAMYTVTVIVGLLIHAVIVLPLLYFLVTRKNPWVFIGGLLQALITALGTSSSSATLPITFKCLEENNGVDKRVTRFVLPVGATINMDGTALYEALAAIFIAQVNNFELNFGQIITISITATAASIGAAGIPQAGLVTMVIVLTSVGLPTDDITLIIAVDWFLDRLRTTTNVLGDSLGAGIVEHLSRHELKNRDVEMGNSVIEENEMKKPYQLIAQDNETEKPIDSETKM
EXPERIMENTAL_PROTOCOL: Inhibitory concentration against glutamate uptake in HEK cells expressing human Excitatory amino acid transporter 1
# log10 of IC50 per record follows
Plainly stated, the numbers are log10 of IC50 given in nM.

Request: log10 of IC50, test system Excitatory amino acid transporter 1 (Homo sapiens), entry "Cc1ccccc1-c1ccc(NC(=O)C[C@H](N)C(=O)O)cc1"
3.30

For Excitatory amino acid transporter 1 (Homo sapiens), provide log10 of IC50 of "Cc1cc(NC(=O)C[C@H](N)C(=O)O)ccc1-c1ccc(Cl)cc1" please.
3.30

Checklist item: log10 of IC50 tested on Excitatory amino acid transporter 1 (Homo sapiens), entry "N[C@@H](CC(=O)Nc1ccc2c(c1)C(=O)c1ccccc1-2)C(=O)O" , value?
3.48

Test system Excitatory amino acid transporter 1 (Homo sapiens); read-out log10 of IC50; what value for "N[C@@H](CC(=O)Nc1ccc2c(c1)Cc1c(Cl)cc(Cl)cc1-2)C(=O)O" ?
2.30

Enter reported log10 of IC50 observed with Excitatory amino acid transporter 1 (Homo sapiens) for "N[C@@H](CC(=O)Nc1ccc2c(c1)Cc1cc(Cl)ccc1-2)C(=O)O"
2.18

Find log10 of IC50 (Excitatory amino acid transporter 1 (Homo sapiens)) for the entry CCN1c2ccccc2Oc2ccc(NC(=O)CC(N)C(=O)O)cc21 (stereo unspecified)
2.85

Give the reported log10 of IC50 for "N[C@@H](CC(=O)Nc1ccc(-c2ccc3ccccc3c2)cc1)C(=O)O" (system: Excitatory amino acid transporter 1 (Homo sapiens)).
5.00

Quick check: log10 of IC50 on Excitatory amino acid transporter 1 (Homo sapiens), item "N[C@@H](CC(=O)Nc1ccc2oc3cc(F)c(F)cc3c2c1)C(=O)O" ?
3.00

Form entry - test system: Excitatory amino acid transporter 1 (Homo sapiens); read-out: log10 of IC50; compound: Cc1ccc(NC(=O)CC(N)C(=O)O)cc1-c1ccc(F)c(Cl)c1 (stereo unspecified)
3.48

Query log10 of IC50 on Excitatory amino acid transporter 1 (Homo sapiens) for "N[C@@H](CC(=O)Nc1ccc2c(c1)Cc1cc(F)ccc1-2)C(=O)O"
2.00

Kindly state the measured log10 of IC50 obtained for "N[C@@H](CC(=O)Nc1ccc(-c2ccc(F)c(Cl)c2)c(C(F)(F)F)c1)C(=O)O" with Excitatory amino acid transporter 1 (Homo sapiens).
2.60

Item: "Cc1cc(-c2cccc(C(F)(F)F)c2)ccc1NC(=O)C[C@H](N)C(=O)O" Test system: Excitatory amino acid transporter 1 (Homo sapiens) Read-out: log10 of IC50 Value: ?
3.00

Report log10 of IC50 for "N[C@@H](CC(=O)Nc1ccc2c(c1)Cc1cc(C(F)(F)F)ccc1-2)C(=O)O" tested on Excitatory amino acid transporter 1 (Homo sapiens).
3.58

Query the reported log10 of IC50 for Excitatory amino acid transporter 1 (Homo sapiens); item: "Cc1cc(NC(=O)C[C@H](N)C(=O)O)ccc1-c1ccc(C(F)(F)F)cc1"
4.30
